TGT: T1, Sla1-3, P32790
T1 sequence (P32790 344-424, looked up): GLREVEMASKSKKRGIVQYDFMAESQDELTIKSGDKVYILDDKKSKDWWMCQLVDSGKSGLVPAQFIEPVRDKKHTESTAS
ASSAY_REMARKS: SPOT array
MEASUREMENT_PARAMETERS: median of control spots 5475
One threshold, 10, splits the recorded SPOT intensity values: lower ones are criterion met, equal or higher ones are criterion not met.

Please state whether SPOT intensity is below 10 for "GATNNAPTLPKRKNP"
criterion met

Would you kindly repeat that for "HAPPLPPTAPPPPSL" ?
criterion met

Also "KWVRRPKLMTPLTFS" , if possible.
criterion not met

Continue with "KNPRRQLQIPRQQPS"
criterion met

Check "RKQRSIPLSPIVPES" too.
criterion not met

Also "LKQRFFLMFPKSIIW" ?
criterion not met

Next: "RKRAPTPPAPSRSEK"
criterion not met

// next record "SNRRPVPRRPSQPLN"
criterion not met

Can you handle "APKREAPKPPANTSP" next?
criterion not met

Follow-up item: "AIPPPVPNRPGGTTN"
criterion met

And then "TPTSGPPLLPPRNTM" , what is it?
criterion met

Follow-up entry: "VLRFLGFPLPIFEKG"
criterion met

Again, but for "HGKRRAPLLLAKLDV"
criterion met

Do the same for "IAPIPMPKPNPTHIS" please
criterion met

Also need "GDHPKGPPPPPPPDE" , thanks.
criterion met
